target: Her2 Exon 20 INSYVMA Ba/F3 (Homo sapiens, UniProt P04626, DUP772-775, cells depend on it); assay: Her2 Exon 20 INSYVMA Ba/F3 CellTiter-Glo; type: cell-based; conditions: CellTiter-Glo, 72 h, read-out: Her2 Exon 20 INSYVMA Ba/F3 CTG IC50
Sequence (P04626 with tags, fused parts or gaps DUP772-775): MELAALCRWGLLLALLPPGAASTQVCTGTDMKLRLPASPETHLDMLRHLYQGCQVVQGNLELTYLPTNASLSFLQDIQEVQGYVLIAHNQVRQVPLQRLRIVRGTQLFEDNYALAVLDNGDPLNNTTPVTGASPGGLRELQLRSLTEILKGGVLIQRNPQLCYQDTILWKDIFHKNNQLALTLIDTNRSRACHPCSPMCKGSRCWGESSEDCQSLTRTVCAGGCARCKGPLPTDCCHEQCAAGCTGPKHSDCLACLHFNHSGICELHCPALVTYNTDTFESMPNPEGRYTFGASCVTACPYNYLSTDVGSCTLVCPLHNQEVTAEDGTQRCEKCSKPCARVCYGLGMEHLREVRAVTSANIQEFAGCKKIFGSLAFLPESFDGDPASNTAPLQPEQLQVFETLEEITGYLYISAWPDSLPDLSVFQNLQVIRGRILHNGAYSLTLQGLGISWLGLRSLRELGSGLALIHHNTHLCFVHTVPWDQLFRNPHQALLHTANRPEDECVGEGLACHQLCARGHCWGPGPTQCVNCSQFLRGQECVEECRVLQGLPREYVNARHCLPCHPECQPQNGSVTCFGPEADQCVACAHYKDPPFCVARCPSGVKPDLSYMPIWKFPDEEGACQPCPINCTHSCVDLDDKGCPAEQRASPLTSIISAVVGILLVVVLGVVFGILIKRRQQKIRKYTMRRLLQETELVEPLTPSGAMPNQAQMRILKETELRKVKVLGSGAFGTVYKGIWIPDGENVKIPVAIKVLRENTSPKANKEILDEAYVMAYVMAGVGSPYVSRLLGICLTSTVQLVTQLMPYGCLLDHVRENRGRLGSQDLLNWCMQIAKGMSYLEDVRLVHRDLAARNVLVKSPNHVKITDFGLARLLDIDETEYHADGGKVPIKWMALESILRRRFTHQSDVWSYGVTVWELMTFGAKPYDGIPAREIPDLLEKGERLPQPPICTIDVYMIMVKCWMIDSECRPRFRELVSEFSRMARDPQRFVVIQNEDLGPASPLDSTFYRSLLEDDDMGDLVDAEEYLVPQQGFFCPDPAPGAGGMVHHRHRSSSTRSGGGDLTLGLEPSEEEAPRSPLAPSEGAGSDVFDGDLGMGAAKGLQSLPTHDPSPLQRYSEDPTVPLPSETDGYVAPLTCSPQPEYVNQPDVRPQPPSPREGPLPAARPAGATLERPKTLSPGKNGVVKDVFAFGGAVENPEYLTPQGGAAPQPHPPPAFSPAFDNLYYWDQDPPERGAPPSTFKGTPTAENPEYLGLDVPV
Reported GI50 values follow for various compounds

Sample answers from the record:
molecule_smiles=C=CC(=O)Nc1cc(-c2c(-c3ccc(N4CCN(C(C)=O)CC4)cc3)[nH]c3ncc(C(=O)OC(C)C)cc23)ccc1C endpoint_value="1000 to 10000 nM"
molecule_smiles=C=CC(=O)Nc1cc(-c2c(-c3cccc(CN4CCN(C)CC4)c3)[nH]c3nccc(Cl)c23)ccc1C endpoint_value="100 to 500 nM"
molecule_smiles=C=CC(=O)N1CCc2ccc(-c3c(-c4ccc(N5CCN(C(C)C)CC5)cc4)[nH]c4nccc(Cl)c34)cc21 endpoint_value="100 to 500 nM"
molecule_smiles=C=CC(=O)Nc1cc(-c2c(-c3ccc(CCO)cc3)[nH]c3ncc(C(=O)OC(C)C)cc23)ccc1C endpoint_value="500 to 1000 nM"

Please find the next compound below.
// GI50 lookup, compound = C=CC(=O)Nc1cc(-c2c(-c3ccc(N4CCN(C)CC4)c(F)c3)[nH]c3nccc(Cl)c23)ccc1C , result: 100 to 500 nM

* * *

biological target: Her2 Exon 20 INSYVMA Ba/F3 (Homo sapiens, UniProt P04626, DUP772-775, cells depend on it); assay: Her2 Exon 20 INSYVMA Ba/F3 CellTiter-Glo; type: cell-based; settings: CellTiter-Glo, 72 h, read-out: Her2 Exon 20 INSYVMA Ba/F3 CTG IC50
Reported GI50 values follow for various molecules

// GI50 lookup, molecule = C=CC(=O)Nc1cc(-c2c(-c3ccc(C(=O)N4CCOCC4)cc3)[nH]c3nccc(Cl)c23)ccc1C , result: 100 to 500 nM

// GI50 lookup, molecule = C=CC(=O)Nc1cc(-c2c(-c3ccc(N(C)CCN(C)C)cc3)[nH]c3nccc(Cl)c23)ccc1C , result: ≤ 100 nM

// GI50 lookup, molecule = C=CC(=O)N1CCCc2ccc(-c3c(-c4ccc(OCCN5CCCC5)cc4)[nH]c4nccc(Cl)c34)cc21 , result: 500 to 1000 nM

// GI50 lookup, molecule = C=CC(=O)Nc1cc(-c2c(-c3cccc(CN4CCN(C)CC4)c3)[nH]c3ncc(C(=O)OC(C)C)cc23)ccc1C , result: 500 to 1000 nM
